src = ChEMBL document CHEMBL3137667

Below is a list of entries, each paired with its recorded Hepatotoxicity (moderate) value.
- Measurement context: human, serum;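 note: human clinical chemistry: moderate when serum ALT or AST reaches 6× upper normal limit or alkaline phosphatase 1.7×, value counts indexed literature references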

Exercise: Using the record for `Cc1ccc(O)c([C@H](CCN(C(C)C)C(C)C)c2ccccc2)c1` , report its Hepatotoxicity (moderate).
Solution: 0

Continuing:
Exercise: Requested field: Hepatotoxicity (moderate). Item: `Clc1ccc2nsnc2c1NC1=NCCN1`
Solution: 2

Exercise: Would you mind doing `O=C1NCCN1CCN1CCC(c2cn(-c3ccc(F)cc3)c3ccc(Cl)cc23)CC1` as well?
Solution: 1

Exercise: Proceed to `O=P(O)(O)C(Sc1ccc(Cl)cc1)P(=O)(O)O`
Solution: 1

Exercise: How about this compound: `[H]/N=C(\N/C(=N/[H])Nc1ccc(Cl)cc1)NC(C)C`
Solution: 1

Exercise: Try `CC(=O)OCC1=C(C(=O)O)N2C(=O)[C@@H](NC(=O)Cc3cccs3)[C@H]2SC1` next.
Solution: 4
